For each entry below, report its pKd value.
# tested.system: MPV fusion glycoprotein with the D280N mutation (MPV-F N280) (metapneumovirus)
# assay.comment: SPR; F protein loaded on streptavidin sensors, mAb in solution
Schema: pKd number; meaning minus log10 of the concentration expressed in molar units.

Inquiry: Requested read-out: pKd. Entry: MPK204 (antibody, V domains shown) VH: QVQLVESGGGLVKPGGSLRLSCEASGLSLSGYYMIWIRQAPGKGLEWISSISSSSNYIDYADSVKGRFTISRHNGQNTLYLQMNSLRVEDTAVYYCATEQTPSPGPFDLWGQGTLVTVSS VL: QSVLTQPPSVSGAPGQRVTISCTGTSSNIGTGYDVHWYQQFPGTSPKLLIYRNTNRPSGVPDRFSGSKSGSSASLAIAGLQAEDEADYYCQSYDRSVSGWVFGGGTKLTVL
Reply text: 8.59

Inquiry: Requested read-out: pKd. Entry: MPK162 (antibody, V domains shown) VH: EVQLVESGGGLVKPGDSLRLSCAASGFSLSSYYMFWIRQAPGKGLEWVSDISGGSTFTNYADSVKGRFTISRDNAKKVLYLQMNSLRVDDSAVYYCVRGSSISPNWFESWGQGALVTVSS VL: QSVLTQPPSVSGAPGQRVTISCTGTSSNIGAGYDVHWYQQVPGTAPKLLIYGNSNRPSGVPDRFSGSKSGTAASLAINGLQTEDEAEYYCQSYDRSLTGSYVFGSGTRVFVR
Reply text: 7.00

Inquiry: Requested read-out: pKd. Entry: MPK141 (antibody, V domains shown) VH: EVQLVESGGGLVKPGGSLRLSCAASGFTISGYYMTWIRQAPGKGLEWISYISGSSSYTNYADSVKGRFTISRDNGRNSVYLQMNSLRADDTGVYYCAREETPSPGPFDSWGQGILVTVSS VL: QSVLTQPPSVSGAPGQRIIISCIGSSSNIGTGYDVHWYQQLPGRAPKLLISRNTNRPSGIPDRFSGSKSGTSASLAITGLQADDEADYYCQSYDRGLDGWVFGGGTKLTVL
Reply text: 9.08

Inquiry: Requested read-out: pKd. Entry: MPK132-v1 (antibody, V domains shown) VH: EVQLVESGGGLVKPGGSLRLSCEASGISLSGYYMIWIRQAPGKGLEWISSISSSSNYIDYADSVKGRFTISRHNGQNTLYLQMNSLRVEDTAVYFCATEQTPSPGPFELWGQGILVTVSS VL: QSVVTQPPSVSGAPGQRVTIFCTGTSSNIGTGYDVHWYQQFPGTSPKLLIYRNTNRPSGVPDRFSGSKSGSSASLAIAGLQAEDEADYYCQSYDRSVSGWVFGGGTKLTVL
Reply text: 8.37

Inquiry: Requested read-out: pKd. Entry: MPK145 (antibody, V domains shown) VH: EVQLVESGGGLVEPGGSLRLSCAASGFTISGYGMSWVRQAPGKGLEWVSSISASSSYIYYGDAMKGRITISRDNGWNSMYLQMNSLRTEDTAVYYCATAPIEPPYFDLWGRGTLVTVSS VL: QSVVTQPPSVSGAPGQRVTISCTGSSSNIGAGYDVHWYQQFPGKAPKVLIYGNNNRPSGVPDRFAASNSGASASLAITGLQAEDEAAYFCQSYDRRLSGPVFGGGTKLTVL
Reply text: 9.07

src = patent US20260028391A1
